# ASSAY PROTOCOL: Partition coefficient (logP)
# Assay type: physicochemical
# PARTICULARS: octanol/water
MEASUREMENT LABEL: logP

Solved entries:
| COMPOUND | logP |
| --- | --- |
| Cc1ccccc1-c1nc(N)nc(N)n1 | 1.26 |
| O=C(O)Cc1cccc(F)c1 | 1.59 |
| Cc1c(N2CCOCC2)c(=O)n(C)c(=O)n1C1CCCCC1 | 2.39 |
| Nc1nc(N)nc(-c2c(Cl)cccc2Cl)n1 | 1.38 |
| COc1cc(CC(=O)O)cc(-c2ccc(Cl)cc2)c1 | 3.71 |
| CCOc1cccc(CC(=O)O)c1 | 1.88 |
| Nc1nc(N)nc(-c2cccc(Cl)c2)n1 | 2.33 |
| Nc1nc(N)nc(-c2cc(Cl)ccc2F)n1 | 1.81 |

[A] CCCNc1c(C)n(-c2ccccc2)c(=O)n(C)c1=O
[B] Cc1cc(CC(=O)O)cc(OCC(C)C)c1
Please compare: A and B . Report which one has the smaller logP value. Mark your selection by writing its label.
A

----------
# ASSAY PROTOCOL: Partition coefficient (logP)
# Type: physicochemical
# PARTICULARS: octanol/water
MEASUREMENT LABEL: logP

| COMPOUND | MEASURED VALUE |
| --- | --- |
| Cc1ccc(-c2nc(N)nc(N)n2)cc1 | 1.92 |
| Nc1nc(N)nc(-c2cc(Br)ccc2Br)n1 | 2.09 |
| Nc1nc(N)nc(-c2cccc(F)c2)n1 | 1.73 |

----------
# System: Rattus norvegicus
# ASSAY PROTOCOL: Antiulcer activity in rat at the dose of 20 mg/kg administered intraperitoneally.
# Type: functional
# PARTICULARS: ip, route intraperitoneal
MEASUREMENT LABEL: inhibition in vivo at 20 mg/kg (%)
State just the number; it will be interpreted in %.

Solved entries:
| COMPOUND | MEASUREMENT LABEL | MEASURED VALUE |
| --- | --- | --- |
| Nc1nc(N)nc(-c2cc(Cl)ccc2F)n1 | inhibition in vivo at 20 mg/kg | 89 |
| Nc1nc(N)nc(-c2cccc(SC(F)(F)F)c2)n1 | inhibition in vivo at 20 mg/kg | 87 |

Field: inhibition in vivo at 20 mg/kg (Rattus norvegicus). Entry: `Nc1nc(N)nc(-c2ccccc2Cl)n1`
36

----------
# ASSAY PROTOCOL: Partition coefficient (logP)
# Format: physicochemical
# PARTICULARS: octanol/water
MEASUREMENT LABEL: logP

Solved entries:
| COMPOUND | logP |
| --- | --- |
| O=C(O)Cc1cc(O)cc(-c2ccc(Cl)cc2)c1 | 3.42 |
| Cc1c(N(C)C)c(=O)n(C)c(=O)n1-c1ccccc1 | 1.19 |
| CSc1cccc(-c2nc(N)nc(N)n2)c1 | 2.16 |
| O=C(O)Cc1cccc(Cl)c1 | 1.59 |
| CCn1c(=O)c(N(C)C)c(C)n(-c2ccccc2)c1=O | 2.29 |

[1] CCN(CC)c1c(C)n(CC)c(=O)n(-c2ccccc2)c1=O
[2] COc1ccc(-c2cc(CC(=O)O)cc(OC)c2)cc1
Please compare: 1 and 2 . Report which one has the smaller logP value. Mark your selection by writing its label.
1
(1: 2.2, 2: 3.28)
